- TARGET ENTITY: Tumour suppressor protein p53/Mdm4 (Homo sapiens, UniProt O15151+P04637)
- Sequence (P04637 whole entry): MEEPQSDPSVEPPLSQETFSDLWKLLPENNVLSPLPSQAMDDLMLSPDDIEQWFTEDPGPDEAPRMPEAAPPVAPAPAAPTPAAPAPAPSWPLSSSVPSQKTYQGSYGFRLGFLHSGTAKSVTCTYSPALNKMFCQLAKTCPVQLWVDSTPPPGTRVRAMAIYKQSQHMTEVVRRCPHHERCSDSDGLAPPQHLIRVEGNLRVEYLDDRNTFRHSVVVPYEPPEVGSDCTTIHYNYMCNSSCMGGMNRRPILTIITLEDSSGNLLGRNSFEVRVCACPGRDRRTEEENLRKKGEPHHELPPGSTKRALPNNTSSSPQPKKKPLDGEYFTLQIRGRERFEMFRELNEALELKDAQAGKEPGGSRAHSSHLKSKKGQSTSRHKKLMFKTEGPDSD
- Sequence (O15151 whole entry): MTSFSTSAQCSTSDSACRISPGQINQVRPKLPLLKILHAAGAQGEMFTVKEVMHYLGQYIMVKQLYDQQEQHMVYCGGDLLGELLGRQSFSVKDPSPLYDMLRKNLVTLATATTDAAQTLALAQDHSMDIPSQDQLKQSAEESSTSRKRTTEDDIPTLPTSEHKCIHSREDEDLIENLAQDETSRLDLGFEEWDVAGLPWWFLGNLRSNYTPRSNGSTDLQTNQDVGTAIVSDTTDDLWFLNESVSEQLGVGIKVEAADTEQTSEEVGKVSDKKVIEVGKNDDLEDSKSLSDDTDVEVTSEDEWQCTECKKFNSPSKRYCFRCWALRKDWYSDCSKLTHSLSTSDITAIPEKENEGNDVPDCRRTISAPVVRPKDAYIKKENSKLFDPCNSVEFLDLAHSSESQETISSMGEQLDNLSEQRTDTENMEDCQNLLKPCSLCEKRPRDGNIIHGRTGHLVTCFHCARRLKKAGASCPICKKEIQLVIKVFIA
- EXPERIMENT SUMMARY: Inhibition of MDMX/p53 (unknown origin) interaction
METRIC NAME: pKd
pKd is a log-scale quantity: -log10 of the concentration expressed in molar.

Documented pKd of C[C@H](CCC(=O)O)[C@H]1CC[C@H]2[C@@H]3CC[C@@H]4C[C@H](O)CC[C@]4(C)[C@H]3CC[C@]12C [LITHOCHOLIC ACID] : 4.82

###

- TARGET ENTITY: Tumour suppressor p53/oncoprotein Mdm2 (Homo sapiens, UniProt P04637+Q00987)
- Sequence (P04637 whole entry): as the sequence (P04637 whole entry) above
- Sequence (Q00987 whole entry): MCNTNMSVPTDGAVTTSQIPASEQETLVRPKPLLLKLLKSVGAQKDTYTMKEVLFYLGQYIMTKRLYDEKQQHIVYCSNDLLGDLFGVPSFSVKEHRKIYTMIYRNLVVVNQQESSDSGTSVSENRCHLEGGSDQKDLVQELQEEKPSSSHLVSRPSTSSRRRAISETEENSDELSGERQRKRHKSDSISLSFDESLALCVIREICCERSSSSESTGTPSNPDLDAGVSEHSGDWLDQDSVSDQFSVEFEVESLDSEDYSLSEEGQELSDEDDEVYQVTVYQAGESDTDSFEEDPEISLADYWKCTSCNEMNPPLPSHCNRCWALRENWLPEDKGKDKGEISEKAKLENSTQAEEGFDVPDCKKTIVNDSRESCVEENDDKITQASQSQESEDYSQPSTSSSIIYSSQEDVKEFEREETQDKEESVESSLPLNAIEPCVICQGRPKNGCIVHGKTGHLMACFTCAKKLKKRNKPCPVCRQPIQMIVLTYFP
- EXPERIMENT SUMMARY: Inhibition of MDM2/p53 (unknown origin) interaction by fluorescence polarization assay
METRIC NAME: pKi
To interpret pKi, take it as minus log10 of a concentration measured in moles per litre.

Per the records, this compound ( "O=C(O)c1ccccc1/N=N/C(=N\Nc1cc(S(=O)(=O)O)ccc1O)c1ccccc1" ) has pKi equal to 6.74

###

- Test system: MCF7
- EXPERIMENT SUMMARY: Cytotoxicity against human MCF7 cells
- Assay type: functional, cell-based
METRIC NAME: EC50 (nM)
Could you give me the number in nM? Just the number is fine.

The observed EC50 for "COC(=O)[C@@H](CCCCNC(=O)OC(C)(C)C)NC(=O)CI" when tested with MCF7 stands at 640

###

- TARGET ENTITY: Keap1/Nrf2 (Homo sapiens, UniProt Q14145+Q16236)
- Sequence (Q16236 whole entry): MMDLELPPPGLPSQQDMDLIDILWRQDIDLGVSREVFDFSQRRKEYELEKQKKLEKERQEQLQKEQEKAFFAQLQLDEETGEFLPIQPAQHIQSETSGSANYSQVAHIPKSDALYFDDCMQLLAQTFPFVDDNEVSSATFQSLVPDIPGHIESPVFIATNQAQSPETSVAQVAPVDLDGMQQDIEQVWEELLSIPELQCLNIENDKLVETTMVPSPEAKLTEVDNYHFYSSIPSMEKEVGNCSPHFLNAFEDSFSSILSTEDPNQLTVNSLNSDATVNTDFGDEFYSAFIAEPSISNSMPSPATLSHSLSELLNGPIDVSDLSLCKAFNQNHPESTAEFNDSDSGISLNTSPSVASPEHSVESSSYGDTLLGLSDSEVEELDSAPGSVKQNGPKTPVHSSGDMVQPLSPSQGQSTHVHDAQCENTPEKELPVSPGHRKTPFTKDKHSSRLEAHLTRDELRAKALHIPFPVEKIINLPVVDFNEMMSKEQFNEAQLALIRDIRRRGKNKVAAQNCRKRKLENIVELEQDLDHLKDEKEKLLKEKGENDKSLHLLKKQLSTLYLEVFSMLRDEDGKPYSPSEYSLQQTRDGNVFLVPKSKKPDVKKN
- Sequence (Q14145 whole entry): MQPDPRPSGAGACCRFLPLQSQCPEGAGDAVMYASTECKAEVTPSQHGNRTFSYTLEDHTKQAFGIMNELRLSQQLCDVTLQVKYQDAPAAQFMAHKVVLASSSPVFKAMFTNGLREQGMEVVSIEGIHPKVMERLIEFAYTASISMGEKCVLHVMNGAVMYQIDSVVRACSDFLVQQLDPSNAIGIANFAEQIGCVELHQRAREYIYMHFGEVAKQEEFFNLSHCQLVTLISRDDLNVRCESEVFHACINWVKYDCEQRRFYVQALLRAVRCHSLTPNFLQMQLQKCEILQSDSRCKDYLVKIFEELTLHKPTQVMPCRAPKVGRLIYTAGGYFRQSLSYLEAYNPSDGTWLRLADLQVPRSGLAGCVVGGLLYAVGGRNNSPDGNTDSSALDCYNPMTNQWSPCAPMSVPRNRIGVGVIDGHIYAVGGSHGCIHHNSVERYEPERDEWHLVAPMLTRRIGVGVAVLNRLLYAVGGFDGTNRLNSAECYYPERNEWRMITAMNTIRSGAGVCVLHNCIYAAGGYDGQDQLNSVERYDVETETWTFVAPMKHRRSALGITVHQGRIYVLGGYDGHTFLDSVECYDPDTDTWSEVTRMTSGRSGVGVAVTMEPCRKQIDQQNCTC
- EXPERIMENT SUMMARY: Inhibition of Nrf2/Keap1 (unknown origin) protein interaction by fluorescence anisotropy method
METRIC NAME: Kd (nM)
Number only, in nM; omit the unit.

Value of measured Kd for the entry "CCC(CC)c1ccc(S(=O)(=O)Nc2cc(Sc3nc[nH]n3)c(O)c3ccccc23)cc1" : 2900

###

- EXPERIMENT SUMMARY: Binding affinity to IFNalpha (unknown origin) assessed as reduction in IFNalpha/IFNAR2 interaction
- Set-up: species or system Homo sapiens
METRIC NAME: pIC50
The scale used: pIC50 is minus the common logarithm of the concentration in molar units.

Entry under test: "CNCc1ccccc1Cc1cccc2ccccc12" . Its pIC50 was 5.40

###

- TARGET ENTITY: Annexin A2/S100-A10 (Homo sapiens, UniProt P07355+P60903)
- Sequence (P07355 whole entry): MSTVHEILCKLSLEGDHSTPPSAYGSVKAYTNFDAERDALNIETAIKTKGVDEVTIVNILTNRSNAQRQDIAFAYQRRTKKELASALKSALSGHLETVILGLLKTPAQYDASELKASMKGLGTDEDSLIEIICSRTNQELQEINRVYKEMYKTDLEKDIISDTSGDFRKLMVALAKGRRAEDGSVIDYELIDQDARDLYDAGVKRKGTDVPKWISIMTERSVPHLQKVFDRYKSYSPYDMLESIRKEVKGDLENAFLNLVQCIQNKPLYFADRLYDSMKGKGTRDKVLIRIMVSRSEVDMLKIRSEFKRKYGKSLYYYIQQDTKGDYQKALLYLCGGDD
- Sequence (P60903 whole entry): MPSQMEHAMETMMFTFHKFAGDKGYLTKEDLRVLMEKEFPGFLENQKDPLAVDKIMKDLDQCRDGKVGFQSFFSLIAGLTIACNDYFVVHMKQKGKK
- EXPERIMENT SUMMARY: Inhibition of Annexin A2/Protein S100-A10 (unknown origin) protein interaction by competitive fluorescent binding assay
METRIC NAME: pIC50
Kindly note that pIC50 refers to -log10 of the concentration in mol/L and answer with the value alone.

Lab note: "Cc1ccccc1OCc1nnc(SCC(N)=O)[nH]1" gave pIC50 of 4.62

###

- TARGET ENTITY: Urokinase plasminogen activator surface receptor (Homo sapiens)
- Sequence (Q03405 whole entry): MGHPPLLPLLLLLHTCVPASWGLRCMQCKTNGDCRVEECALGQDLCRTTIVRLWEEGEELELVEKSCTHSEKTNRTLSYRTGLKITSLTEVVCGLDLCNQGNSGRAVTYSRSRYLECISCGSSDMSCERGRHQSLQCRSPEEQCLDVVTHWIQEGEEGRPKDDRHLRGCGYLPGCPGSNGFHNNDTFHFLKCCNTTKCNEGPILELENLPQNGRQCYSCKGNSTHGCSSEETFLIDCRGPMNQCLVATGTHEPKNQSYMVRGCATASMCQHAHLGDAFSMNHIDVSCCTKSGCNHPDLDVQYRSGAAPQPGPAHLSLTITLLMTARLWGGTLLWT
METRIC NAME: pKd
Units for pKd: none; it is -log10 of a concentration expressed in mol/L.

Entry "C[C@H]1C[C@H](C)CN(c2cc(Nc3ccccc3C(=O)O)c3c4c(onc24)-c2ccccc2C3=O)C1" ; pKd = 6.51

###

- TARGET ENTITY: Neuropilin-1 (Homo sapiens, UniProt O14786)
- Sequence (O14786 whole entry): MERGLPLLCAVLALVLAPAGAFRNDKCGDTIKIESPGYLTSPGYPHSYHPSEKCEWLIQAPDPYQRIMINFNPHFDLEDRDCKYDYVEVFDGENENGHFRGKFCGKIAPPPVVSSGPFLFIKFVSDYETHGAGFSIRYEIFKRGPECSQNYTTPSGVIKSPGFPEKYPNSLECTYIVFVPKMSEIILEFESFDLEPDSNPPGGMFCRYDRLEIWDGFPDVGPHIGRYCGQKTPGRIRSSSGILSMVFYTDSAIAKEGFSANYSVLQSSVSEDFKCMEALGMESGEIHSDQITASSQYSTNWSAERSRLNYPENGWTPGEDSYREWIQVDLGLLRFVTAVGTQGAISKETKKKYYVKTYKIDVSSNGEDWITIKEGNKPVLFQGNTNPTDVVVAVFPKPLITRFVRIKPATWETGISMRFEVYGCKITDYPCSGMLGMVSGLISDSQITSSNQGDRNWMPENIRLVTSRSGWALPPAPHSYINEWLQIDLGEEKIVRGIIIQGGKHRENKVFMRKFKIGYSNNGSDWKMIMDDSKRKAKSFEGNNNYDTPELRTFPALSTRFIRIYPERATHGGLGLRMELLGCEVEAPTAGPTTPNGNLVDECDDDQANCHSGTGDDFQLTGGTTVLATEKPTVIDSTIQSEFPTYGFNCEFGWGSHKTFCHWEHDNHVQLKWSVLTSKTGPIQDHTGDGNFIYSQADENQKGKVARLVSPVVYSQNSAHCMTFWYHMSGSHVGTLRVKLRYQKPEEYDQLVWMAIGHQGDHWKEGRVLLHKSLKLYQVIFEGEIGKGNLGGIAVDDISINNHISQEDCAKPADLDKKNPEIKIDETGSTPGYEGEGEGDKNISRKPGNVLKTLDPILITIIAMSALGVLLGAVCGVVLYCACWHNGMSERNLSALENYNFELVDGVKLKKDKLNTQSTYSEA
- EXPERIMENT SUMMARY: Binding affinity to NRP1 (unknown origin) assessed as reduction in […]VEGFA (165) protein interaction
METRIC NAME: IC50 (µM)
Could you give me the number in µM? Just the number is fine.

Lab note: measured IC50 of "O=C(NC(=S)Nc1cccc(-c2nc3ccccc3[nH]2)c1)c1ccc2c(c1)OCCO2" was 9.3
